# System: XF498
# protocol: NCI tumour cell line growth inhibition, 48 h
Active and inactive are the calls of the source. Cut-off read from the data, not from the text of the source: active = GI50 up to about 1.1 µM and inactive = higher.
readout: GI50

Cc1ccccc1C1OC(=O)c2ccc3ccccc3c21 (centres undefined)    2.31 µM (inactive)
Clc1ccc(-c2nnc3c4nnc(-c5ccc(Cl)cc5Cl)n4c4ccccc4n23)c(Cl)c1    > 100 µM (inactive)
CC(=O)OCC1OC(n2c(=O)n(-c3ccccc3)c(=O)c3cc(Br)cc(Br)c32)C(OC(C)=O)C(OC(C)=O)C1OC(C)=O (centres undefined)    > 100 µM (inactive)
Cc1noc(/N=C2\C=C(Nc3onc(C)c3C)C(=O)c3ccccc32)c1C    > 100 µM (inactive)
c1ccc(C2OC3(CCC[C@H]4C[C@H]43)O[C@H]2c2ccccc2)cc1 (some centres undefined)    22.7 µM (inactive)
Cc1ccc(S(=O)(=O)NCC2CCCCC2=O)cc1 (centres undefined)    > 100 µM (inactive)

// GI50 lookup, molecule = `COC(=O)Cc1nc2ccccc2o1` , result: 59 µM (inactive)

Entry under test: `CCOC(=O)C(Cc1c(C=O)[nH]c2ccccc12)(NC(=O)c1ccccc1)C(=O)OCC` . Its GI50 was 16.4 µM (inactive)

Lab book: GI50 of COc1ccc(N2C(=O)[C@@H]3[C@@H]4CC(C)CC[C@@H]4c4c([nH]c5ccccc45)[C@@H]3C2=O)cc1 (some centres undefined) noted as 8.3 µM (inactive)

----------
# Tested on: NCI-H522
# protocol: NCI tumour cell line growth inhibition, 48 h
Active and inactive are the calls of the source. Cut-off read from the data, not from the text of the source: active = GI50 up to about 1.1 µM and inactive = higher.
# GI50 values compiled below

// worked examples, GI50 included
C=C1C(=O)OC2C1C(OC(=O)/C(C)=C/C)CC(O)(CCl)C1C(O)C3OC3(C)C21O (stereo not drawn)    0.7 µM (active)
CN(C)c1nc(N(C)C)nc(N(C)CN(C)c2ccc(Cl)cc2)n1    > 100 µM (inactive)
C[C@@H]1CC[C@@]2(OC1)O[C@H]1C[C@H]3[C@@H]4CC[C@H]5C[C@@H](OC6OC(CO)C(OC7OC(CO)C(O)C(OC8OCC(O)C(O)C8O)C7OC7OC(CO)C(O)C(O)C7O)C(O)C6O)[C@H](O)C[C@]5(C)[C@H]4CC[C@]3(C)[C@H]1[C@@H]2C (stereo partly drawn)    0.426 µM (active)
CC1=CC(=O)/C(=C/NC(=S)c2ccncc2)C(=O)O1    > 100 µM (inactive)
O=C(CCC(=O)C1CCC/C1=N/O)Nc1ccc(Cl)cc1 (stereo not drawn)    > 100 µM (inactive)
NC(CNc1ccc(O)cc1)C(=O)O (stereo not drawn)    > 100 µM (inactive)
COc1ccc(/C=C2\N=C(c3ccccc3)OC2=O)c(OCc2ccccc2)c1    24.6 µM (inactive)
COC(=O)C1Cc2cc3c(cc2C1=O)CCC3 (stereo not drawn)    > 100 µM (inactive)
C[C@H]1CC[P+](C)(c2ccccc2)C1 (stereo partly drawn)    > 100 µM (inactive)
C=C1c2nc3ccccc3n2C=C(c2ccc(OC)cc2)N1c1ccc(OCCN2CCCCC2)cc1    > 100 µM (inactive)

// field: GI50; key: CC(=O)C1(C)CC(C#N)(C#N)C(C#N)=C1N (stereo not drawn) ; value = > 100 µM (inactive)

----------
# System: HCT-116
# protocol: NCI tumour cell line growth inhibition, 48 h
Activity calls are given as the source filed them. Rule as the data show it: active = GI50 up to about 1.1 µM and inactive = higher.
readout: GI50

These solved cases illustrate the format of a correct answer.
CC(C)(C)OC(=O)Cn1ncn(NC(=O)Cc2ccccc2)c1=O    > 10 µM (inactive)
CC1=CC(=O)/C(=C/NC(=S)c2ccncc2)C(=O)O1    > 100 µM (inactive)
Nc1nc(N)c(C2=CCNCC2)c(=O)[nH]1    > 100 µM (inactive)
O=C(Nc1ccc(Cl)cc1)c1cc(S(=O)(=O)Nc2nc3cccnc3[nH]2)c(SSc2cc(Cl)c(C(=O)Nc3ccc(Cl)cc3)cc2S(=O)(=O)Nc2nc3cccnc3[nH]2)cc1Cl    > 100 µM (inactive)
CCn1cc(C(=O)O)c(=O)c2cc(F)c(N3CCN(CN4C(=O)/C(=N\NC(=O)c5ccncc5)c5cc(Cl)ccc54)CC3)cc21    58.6 µM (inactive)
COc1ccc(CCN(C)C(=O)CC(C#N)(c2ccccc2)c2ccc(OC)c(OC)c2)cc1OC (stereo not drawn)    > 100 µM (inactive)
O/N=C1\CCCCC1C(NO)c1ccccc1 (stereo not drawn)    > 100 µM (inactive)

Moving on to the next molecule.
Test item CC1=C(c2ccccc2)NC(=S)C(C)C(c2ccccc2)=N1 (stereo not drawn) ; HCT-116; reported GI50 was 27.5 µM (inactive)

----------
# Tested on: KM12
# protocol: NCI tumour cell line growth inhibition, 48 h
Active and inactive are the calls of the source. No stated cut-off is given here; in the data, active = GI50 up to about 1.1 µM and inactive = higher.
Bench note: report the call from true for active, false for inactive

Cc1cc(S(=O)(=O)[N-]/C(=N/S(=O)(=O)c2ccc(Cl)cc2)[n+]2ccc(N(C)C)cc2)c(S)cc1Cl    false
Cc1ccc2c(c1)C(=O)C1(C2)Cc2cccc(C)c2C1=O (stereo unspecified)    false
Cc1noc(/N=C2\C=C(Nc3onc(C)c3C)C(=O)c3ccccc32)c1C    false
COC(=O)C1=C(C(=O)OC)C2CCC1CC2=O (stereo unspecified)    false
CCN(CC)CCC(=O)c1ccc(Oc2ccc(Cl)cc2)cc1    false

What did the test return for C=C1C(=O)OC2C1C(OC(=O)/C(C)=C/C)CC(O)(CCl)C1C(O)C3OC3(C)C21O (stereo unspecified) ?
false

So what was the verdict on COc1ccc(C(C)NNC(=O)c2ccncc2)cc1F (stereo unspecified) in this test?
false

Would you mind telling me which call this test gave O=C(CCC(=O)C1CCC/C1=N/O)Nc1ccc(Cl)cc1 (stereo unspecified) ?
false

Look up the recorded call for CC(=O)NCCC1CN(C(=O)/C=C\C#C[Si](C)(C)C)c2ccccc21 (stereo unspecified) in this test.
false

Would you mind telling me which call this test gave O=C1CCCCC(=O)OC2(CCCCC2=O)CC1 (stereo unspecified) ?
false

What call does the record list for `O=S1OC(c2ccccc2)(c2ccccc2)C(c2ccccc2)(c2ccccc2)O1` ?
false

How did this test come out for `Oc1nc2c(c(-c3cccc(Cl)c3)n1)COC/C2=C\c1cccc(Cl)c1` ?
false

Just curious, what result did `O=c1/c(=C/c2ccccc2[N+](=O)[O-])sc2nc3ccccc3n12` get here?
false

For `COCn1c(C)c(C)c2c(=O)oc(C)nc21` , what call appears in the results of this test?
false

How did this test come out for COc1ccc(N2C(=O)[C@@H]3[C@@H]4CC(C)CC[C@@H]4c4c([nH]c5ccccc45)[C@@H]3C2=O)cc1 (stereo partly specified) ?
false

Record lookup: outcome of this test for CCCCCCCCCCCCCCCCCCNc1ccn(C2OC(COP(=O)(O)OCCCCCCCCCCCCCCCC)C(O)C2O)c(=O)n1 (stereo unspecified) ?
false

Could you kindly confirm the outcome this assay logged for `COc1cc2c(c(OC)c1OC)-c1ccc(SC)cc1C(=O)CC2` ?
true

# fetch the recorded call for Cc1c[nH]c2c(O)cc3c(c12)[C@H](CCl)CN3C(=O)c1cc2cc(NC(=O)Nc3ccc4[nH]c(C(=O)N5C[C@@H](CCl)c6c5cc(O)c5[nH]cc(C)c65)cc4c3)ccc2[nH]1 [BIZELESIN] here
false

Which outcome did this test record for the molecule `C=C1c2nc3ccccc3n2C=C(c2ccc(OC)cc2)N1c1ccc(OCCN2CCCCC2)cc1` ?
false

Give the logged outcome of this assay for the following molecule: `N[C@@H]1c2c(Br)sc(Br)c2[C@H](O)[C@@H]1O`
false

Identify the outcome logged in this assay for the molecule shown: `COc1ccc(/C=C2\N=C(c3ccccc3)OC2=O)c(OCc2ccccc2)c1`
false

----------
Measured GI50 accompanies every entry in the list below.
# Tested on: NCI-H23
# protocol: NCI tumour cell line growth inhibition, 48 h
Calls of active or inactive are those of the source. No stated cut-off is given here; in the data, active = GI50 up to about 1.1 µM and inactive = higher.

// COC(=O)C1C(=O)N(C)C(=O)N2CCCC12 (centres undefined) : GI50 value = > 100 µM (inactive)

----------
Items are presented alongside their recorded GI50.
# Tested on: RXF 393
# protocol: NCI tumour cell line growth inhibition, 48 h
Calls of active or inactive are those of the source. Rule as the data show it: active = GI50 up to about 1.1 µM and inactive = higher.

Consider the reported GI50 for these molecules:
N[C@@H]1C[C@H](N)c2c(Cl)sc(Cl)c21    > 100 µM (inactive)
CC(C)(C)OC(=O)NCC(O)CNC(=O)OC(C)(C)C    > 100 µM (inactive)
CS(=O)(=O)N1CC(CCl)c2ccc(NCCN)cc21 (stereo not drawn)    35.4 µM (inactive)
O=C1Nc2ccc(Br)cc2/C1=N/NC(=S)Nc1ccc(F)cc1    1.76 µM (inactive)
C/C=C1/CN2CCC34c5ccccc5N5C(=O)C(C6CC78c9ccccc9N9C(=O)C=CC(C%10CC7N6C/C%10=C/C)C98)=CC(C1CC23)C54 (stereo not drawn)    1.73 µM (inactive)
COc1cc(C[C@@H](C)N)cc(OC)c1    43.7 µM (inactive)
Clc1ccc2c(NCCCCN3OC3c3ccccc3)ccnc2c1 (stereo not drawn)    5.55 µM (inactive)

Proceeding to the next molecule to report its GI50.
Sure, the documented GI50 for `C/C(CC(=O)Nc1ccc(NC(=O)/C(C)=N/NS(=O)(=O)c2ccc(C)cc2)cc1)=N\NS(=O)(=O)c1ccc(C)cc1` is > 100 µM (inactive)
